For each entry below, report its melting point value.

Some solved cases for reference:
Compound	melting point
O=C(NCCC1CC1)c1ccc(N2CCN(C(=S)c3ccccc3C(F)(F)F)CC2)nn1 [Example 31]	117 to 120 °C
CC(C)CCCNC(=O)c1ccc(N2CCN(C(=O)c3ccccc3C(F)(F)F)CC2)nn1 [Example 15.33]	43 to 45 °C
CC(C)(C)C(O)CNC(=O)c1ccc(N2CCN(C(=O)c3cc(F)ccc3C(F)(F)F)CC2)nn1 (centres unmarked) [Example 15.30]	186 to 189 °C
O=C(NCCc1ccc(F)cc1F)c1ccc(N2CCN(C(=O)c3ccccc3C(F)(F)F)CC2)nn1	179 to 181 °C
CC(C)(C)C(O)CNC(=O)c1ccc(N2CCN(C(=O)c3ccccc3C(F)(F)F)CC2)nn1 (centres unmarked) [Example 15.29]	236 to 240 °C

Below are 3 compounds. Give each one its melting point.
1. O=C(NCc1ccccn1)c1ccc(N2CCN(C(=O)c3ccccc3C(F)(F)F)CC2)nn1 [Example 30]
2. CC(C)CCNC(=O)c1ccc(N2CCN(C(=O)c3cc(Cl)ccc3C(F)(F)F)CC2)nn1 [Example 3.7]
3. O=C(NCCc1ccc2c(c1)OCO2)c1ccc(N2CCN(C(=O)c3ccccc3C(F)(F)F)CC2)nn1 [Example 30.1]

["179 to 181 °C", "148 to 151 °C", "162 to 164 °C"]

---

- Measured target: stearoyl-CoA desaturase (SCD) (Mus musculus)
- Construct: Reactions are started by adding 2 mg of microsomal protein; from tissue; host or cells: liver microsomes of male ICR mice on a high-carbohydrate, low fat diet
- Method summary: HTS microsomal assay of stearoyl-CoA desaturase inhibition using mouse liver microsomes
- Assay type: biochemical
- Measurement setup: % SCD enzyme activity remaining at 10 μM test compound
Label scheme for Mouse microsome SCD activity % remaining @ 10 μM: A = under 8%, B = from 8% up to 20%, C = 20% and over

Solved cases (3 shown):
Molecule	Discrete label
O=C(NCCc1ccccc1)c1ccc(N2CCN(C(=O)c3ccccc3C(F)(F)F)CC2)nn1	A
CC(C)CCNC(=O)c1ccc(N2CCN(C(=O)N3CCN(C)CC3)CC2)nn1	C
O=C(NCCC1CC1)c1ccc(N2CCN(C(=O)c3cc(C(F)(F)F)ccc3C(F)(F)F)CC2)nn1	A

Please examine the following record next.
Categorize the following entry: O=C(NCC1CC1)c1ccc(N2CCN(C(=O)c3ccccc3C(F)(F)F)CC2)nn1
C

---

- Measured target: stearoyl-CoA desaturase (SCD) (Mus musculus)
- Construct: Reactions are started by adding 2 mg of microsomal protein; from tissue; host or cells: liver microsomes of male ICR mice on a high-carbohydrate, low fat diet
- Method summary: HTS microsomal assay of stearoyl-CoA desaturase inhibition using mouse liver microsomes
- Assay type: biochemical
- Measurement setup: % SCD enzyme activity remaining at 10 μM test compound
I'd be grateful if you could share measured Mouse microsome SCD activity % remaining @ 10 μM for these entries.
Give bare numbers, in %.

Compound	Measured target	Reported measurement
O=C(NCCC1CC1)c1ccc(N2CCN(Cc3ccc(Cl)cc3Cl)CC2)nn1	stearoyl-CoA desaturase (SCD) (Mus musculus)	8

Dear reader, for each entry below, please note its Mouse microsome SCD activity % remaining @ 10 μM.
1. CC(C)CCNC(=O)c1ccc(N2CCN(C(=O)CCC(F)(F)F)CC2)nn1
2. O=C(NCCc1ccc(F)cc1F)c1ccc(N2CCN(C(=O)c3ccccc3C(F)(F)F)CC2)nn1
3. O=C(Nc1ccc(N2CCN(C(=O)c3ccccc3C(F)(F)F)CC2)nn1)Nc1ccccc1F
4. COC(=O)C(CC(C)C)NC(=O)c1ccc(N2CCN(C(=O)c3ccccc3C(F)(F)F)CC2)nn1 (centres unmarked)

1: 42; 2: 5; 3: 73; 4: 69

---

- Measured target: stearoyl-CoA desaturase (SCD) (Mus musculus)
- Construct: Reactions are started by adding 2 mg of microsomal protein; from tissue; host or cells: liver microsomes of male ICR mice on a high-carbohydrate, low fat diet
- Method summary: HTS microsomal assay of stearoyl-CoA desaturase inhibition using mouse liver microsomes
- Format: biochemical
- Measurement setup: % SCD enzyme activity remaining at 10 μM test compound
Mouse microsome SCD activity % remaining @ 10 μM under 10% gets label 1, anything at or over 10% gets label 0.

Molecule	Discrete label
O=C(NCCC1CC1)c1ccc(N2CCN(C(=O)CC(O)(C(F)(F)F)C(F)(F)F)CC2)nn1	label 1
CC(C)CCNC(=O)c1ccc(N2CCN(C(=O)OC(C)(C)C)CC2)nn1	label 0
CC(C)CCNC(=O)c1ccc(N2CCN(C(=O)c3ccccc3[N+](=O)[O-])CC2)nn1	label 1
O=C(NCCC1CC1)c1ccc(N2CCN(Cc3cc(Cl)ccc3Cl)CC2)nn1	label 1
O=C(NCCc1ccccc1)Nc1ccc(N2CCN(C(=O)c3ccccc3C(F)(F)F)CC2)nn1	label 0
O=C(NCCC1CC1)c1ccc(N2CCN(Cc3cc(Cl)ccc3C(F)(F)F)CC2)nn1	label 1
COc1ccc(CCNC(=O)c2ccc(N3CCN(C(=O)c4ccccc4C(F)(F)F)CC3)nn2)cc1	label 1
O=C(NCCCc1ccc(F)cc1)Nc1ccc(N2CCN(C(=O)c3ccccc3C(F)(F)F)CC2)nn1	label 0
CC(C)(C)OC(=O)N1CCN(c2ccc(C(=O)NCCC3CC3)nn2)CC1	label 0
O=C(NCCC1CC1)c1ccc(N2CCN(C(=O)c3ccoc3C(F)(F)F)CC2)nn1	label 1

Identify whether the molecule O=C(NCCC1CC1)c1ccc(N2CCN(Cc3ccc(F)cc3C(F)(F)F)CC2)nn1 records Mouse microsome SCD activity % remaining @ 10 μM below 10%.
label 0

Find out if reported Mouse microsome SCD activity % remaining @ 10 μM for O=C(NCCC1CC1)c1ccc(N2CCN(C(=O)C3(O)CC3)CC2)nn1 is less than 10%
label 0

For this molecule, is Mouse microsome SCD activity % remaining @ 10 μM lower than 10%? CC(C)CCNC(=O)c1ccc(N2CCN(C(=O)C(C)CC(F)(F)F)CC2)nn1 (centres unmarked)
label 0

Does the reported Mouse microsome SCD activity % remaining @ 10 μM of the following molecule sit strictly below 10%? CCOC(=O)CCNC(=O)Nc1ccc(N2CCN(C(=O)c3ccccc3C(F)(F)F)CC2)nn1
label 0

Decide: Mouse microsome SCD activity % remaining @ 10 μM of O=C(NCc1ccccc1)Nc1ccc(N2CCN(C(=O)c3ccccc3C(F)(F)F)CC2)nn1 strictly below 10%?
label 1

Please state whether Mouse microsome SCD activity % remaining @ 10 μM is below 10% for O=C(NCCC1CC1)c1ccc(N2CCN(C(=O)c3ccccn3)CC2)nn1
label 0

In the record for CC(C)CCNC(=O)c1ccc(N2CCN(C(=O)c3c(C(F)(F)F)nnn3Cc3ccccc3)CC2)nn1 , is Mouse microsome SCD activity % remaining @ 10 μM less than 10%?
label 0

Please state whether Mouse microsome SCD activity % remaining @ 10 μM is below 10% for CC(C)CCNC(=O)c1ccc(N2CCN(C(=O)c3nnn(Cc4ccccc4)c3C(F)(F)F)CC2)nn1
label 0

Please let me know if O=C(NCCC1CC1)c1ccc(N2CCN(C(=O)c3cc(Cl)ccc3C(F)(F)F)CC2)nn1 shows Mouse microsome SCD activity % remaining @ 10 μM below 10%.
label 0

Is the reported Mouse microsome SCD activity % remaining @ 10 μM for CC(=O)Oc1ccccc1C(=O)N1CCN(c2ccc(C(=O)NCCC3CC3)nn2)CC1 strictly below 10%?
label 0

Determine whether this molecule shows Mouse microsome SCD activity % remaining @ 10 μM lower than 10% (ties excluded): CC(C)CCNC(=O)c1ccc(N2CCN(C(=O)c3cnccc3C(F)(F)F)CC2)nn1
label 1

---

- Measured target: stearoyl-CoA desaturase (SCD) (Mus musculus, UniProt P13516)
- Construct: Reactions are started by adding 2 mg of microsomal protein; from tissue; host or cells: liver microsomes of male ICR mice on a high-carbohydrate, low fat diet
- Sequence (P13516 whole entry): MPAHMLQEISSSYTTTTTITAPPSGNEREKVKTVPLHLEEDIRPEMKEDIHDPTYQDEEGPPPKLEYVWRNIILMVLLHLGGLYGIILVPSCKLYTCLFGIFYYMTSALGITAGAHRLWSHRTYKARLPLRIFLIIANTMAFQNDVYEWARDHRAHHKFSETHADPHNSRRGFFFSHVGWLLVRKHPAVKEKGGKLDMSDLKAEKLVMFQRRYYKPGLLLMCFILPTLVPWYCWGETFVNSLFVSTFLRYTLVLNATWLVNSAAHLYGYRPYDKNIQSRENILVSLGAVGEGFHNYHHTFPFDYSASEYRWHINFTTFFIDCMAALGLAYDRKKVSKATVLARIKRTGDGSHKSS
- Method summary: HTS microsomal assay of stearoyl-CoA desaturase inhibition using mouse liver microsomes
- Format: biochemical
- Measurement setup: % SCD enzyme activity remaining at 10 μM test compound
- Description: The absence of mitochondrial contamination is enzymatically assessed. The compounds are analyzed with an HTS microsomal assay.
Decide using Mouse microsome SCD activity % remaining @ 10 μM alone. Strictly below 20%: rule met. Equal to or above 20%: rule not met.

Use these answered entries as a reference point.
Compound	Measured target	Discrete label
O=C(NCCC1CC1)c1ccc(N2CCN(C(=O)Cc3ccccc3C(F)(F)F)CC2)nn1	stearoyl-CoA desaturase (SCD) (Mus musculus, UniProt P13516)	rule met
CCCCCNC(=O)Nc1ccc(N2CCN(C(=O)c3ccccc3C(F)(F)F)CC2)nn1	stearoyl-CoA desaturase (SCD) (Mus musculus, UniProt P13516)	rule met

Please determine if CC(=CC(=O)N1CCN(c2ccc(C(=O)NCCC(C)C)nn2)CC1)C(F)(F)F is below 20% in terms of Mouse microsome SCD activity % remaining @ 10 μM.
rule met

Input CCCCNC(=O)Nc1ccc(N2CCN(C(=O)c3ccccc3C(F)(F)F)CC2)nn1 ; condition: Mouse microsome SCD activity % remaining @ 10 μM strictly below 20%. Does it hold?
rule met

Dear reviewer, please state whether O=C(NCCC1CC1)c1ccc(N2CCN(Cc3ccc(F)cc3Cl)CC2)nn1 has Mouse microsome SCD activity % remaining @ 10 μM strictly beneath 20%.
rule met

Dear colleague, could you confirm whether Mouse microsome SCD activity % remaining @ 10 μM of CC(NC(=O)Nc1ccc(N2CCN(C(=O)c3ccccc3C(F)(F)F)CC2)nn1)c1ccc(F)cc1 (centres unmarked) falls below 20%? Thanks.
rule not met

Given O=C(NCCCC1CC1)c1ccc(N2CCN(Cc3cc(F)ccc3C(F)(F)F)CC2)nn1 , is recorded Mouse microsome SCD activity % remaining @ 10 μM strictly lower than 20%?
rule met

Does the reported Mouse microsome SCD activity % remaining @ 10 μM of O=C(NCCC1CC1)c1ccc(N2CCN(C(=O)C3CCCCC3)CC2)nn1 stay below 20%?
rule not met

Quick check: does CCC(CC)C(=O)N1CCN(c2ccc(C(=O)NCCC3CC3)nn2)CC1 have Mouse microsome SCD activity % remaining @ 10 μM under 20%?
rule not met

Hi there! Is Mouse microsome SCD activity % remaining @ 10 μM for CC(C)CCNC(=O)c1ccc(N2CCN(C(=O)c3ccccc3N)CC2)nn1 below 20%, do you know?
rule not met

Would you kindly verify if Mouse microsome SCD activity % remaining @ 10 μM of CC(C)CCNC(=O)c1ccc(N2CCN(C(=O)C3(C(F)(F)F)CC3)CC2)nn1 is strictly less than 20%?
rule not met
